# Assay notes: Voltage sensitivity on voltage-clamped hemispherical lipid bilayer
# Run parameters: long pass emission filter
# Description: It is known that optimal voltage sensitivity can be obtained by measuring the compounds on a voltage-clamped hemispherical bilayer apparatus. The apparatus can include a patch-clamp amplifier, such as a HEKA EPC-8 patch-clamp amplifier. Measurements can be obtained by stepping the membrane potential between two different potentials for a set time lapse. such as, for example, −110 and −60 mV every 10 ms. […]
Respond with Fulfilled for Ex (excitation wavelength of optimal voltage sensitivity) values of 700 nm and above, Not fulfilled for values below.

>  <Compound>
CCCCCCN(CCCCCC)c1ccc2c(c1)OCC(/C=C/c1cc[n+](CCCS(=O)(=O)[O-])cc1F)=C2

>  <Classification>
Not fulfilled

$$$$
>  <Compound>
CCCCN(CCCC)c1ccc2cc(/C=C/c3c(F)c[n+](CCC[N+](CC)(CC)CC)c4ccccc34)ccc2c1.[Br-].[Br-] [ElectroFluor630, Di-4-ANEQ (F) PTEA, reference compound]

>  <Classification>
Not fulfilled

$$$$
>  <Compound>
CCCCN(CCCC)c1ccc2c(c1)OCC(/C=C/c1cc[n+](CCCS(=O)(=O)[O-])cc1F)=C2

>  <Classification>
Not fulfilled

$$$$
>  <Compound>
CCCCCCN(CCCCCC)c1ccc2c(c1)OCC(/C=C/c1c(F)c[n+](CCC[N+](CC)(CC)CC)c3ccccc13)=C2.[Br-].[Br-]

>  <Classification>
Fulfilled

$$$$
>  <Compound>
CCCCN(CCCC)c1ccc2c(c1)OCC(/C=C/c1c(F)c[n+](CCC[N+](CC)(CC)CC)c3ccccc13)=C2.[Br-].[Br-]

>  <Classification>
Fulfilled

$$$$
>  <Compound>
CCCCN(CCCC)c1ccc2cc(/C=C/c3cc[n+](CCCS(=O)(=O)[O-])cc3)ccc2c1 [Di-4-ANEPPS, reference compound]

>  <Classification>
Not fulfilled

$$$$
>  <Compound>
CCCCCN(CCCCC)c1ccc2c(c1)OCC(/C=C/c1cc[n+](CCCS(=O)(=O)[O-])cc1F)=C2

>  <Classification>
Not fulfilled

$$$$

Where do these numbers come from? They come from patent US20260048151A1.
